Hello, the source for this data is paper PMC2944806, in case you need it.

# measuredOn: HLA class I molecule B*0702 (Homo sapiens, UniProt P01889)
# Construct: purchased ProImmune Ltd., Oxford, UK
# assayOverview: REVEAL HLA-peptide binding assay, B*0702
# Set-up: concentration or dose not given beside the values
# conditionInfo: assembly of peptide-HLA complex by ELISA with conformation-dependent anti-HLA antibody, relative to positive control peptide for that allele, comparable within an allele only
Rule: MET for Score (experimentally measured binding affinity, % binding compared to control peptide) not less than 90%, NOT MET for anything less.

querySequence	measuredOn	className
RPPRGLAAH [HTLV-1 nonamer peptide]	HLA class I molecule B*0702 (Homo sapiens, UniProt P01889)	MET
QPRPPPGPC [HTLV-1 nonamer peptide]	HLA class I molecule B*0702 (Homo sapiens, UniProt P01889)	MET
VPYKRIEEL [HTLV-1 nonamer peptide]	HLA class I molecule B*0702 (Homo sapiens, UniProt P01889)	MET
LPVSCPEDL [HTLV-1 nonamer peptide]	HLA class I molecule B*0702 (Homo sapiens, UniProt P01889)	NOT MET
KISLTTGAL [HTLV-1 nonamer peptide]	HLA class I molecule B*0702 (Homo sapiens, UniProt P01889)	NOT MET
LVLQSSSFI [HTLV-1 nonamer peptide]	HLA class I molecule B*0702 (Homo sapiens, UniProt P01889)	NOT MET
DPISRLNAL [HTLV-1 nonamer peptide]	HLA class I molecule B*0702 (Homo sapiens, UniProt P01889)	MET
QAMRKYSPF [HTLV-1 nonamer peptide]	HLA class I molecule B*0702 (Homo sapiens, UniProt P01889)	MET
KARRRRRAE [HTLV-1 nonamer peptide]	HLA class I molecule B*0702 (Homo sapiens, UniProt P01889)	NOT MET
RRRAEKKAA [HTLV-1 nonamer peptide]	HLA class I molecule B*0702 (Homo sapiens, UniProt P01889)	NOT MET
MPVFTLSPV [HTLV-1 nonamer peptide from Pol]	HLA class I molecule B*0702 (Homo sapiens, UniProt P01889)	MET
LAAHHWLNF [HTLV-1 nonamer peptide]	HLA class I molecule B*0702 (Homo sapiens, UniProt P01889)	NOT MET
HPGQLGAFL [HTLV-1 nonamer peptide]	HLA class I molecule B*0702 (Homo sapiens, UniProt P01889)	NOT MET
RAEKKAADV [HTLV-1 nonamer peptide]	HLA class I molecule B*0702 (Homo sapiens, UniProt P01889)	NOT MET
APLPHTSQC [HTLV-1 nonamer peptide]	HLA class I molecule B*0702 (Homo sapiens, UniProt P01889)	MET
SARLHRHAL [HTLV-1 nonamer peptide]	HLA class I molecule B*0702 (Homo sapiens, UniProt P01889)	MET
LPGLNSRQW [HTLV-1 nonamer peptide]	HLA class I molecule B*0702 (Homo sapiens, UniProt P01889)	NOT MET
RDRQRRAEE [HTLV-1 nonamer peptide]	HLA class I molecule B*0702 (Homo sapiens, UniProt P01889)	NOT MET
AASGLFRCL [HTLV-1 nonamer peptide]	HLA class I molecule B*0702 (Homo sapiens, UniProt P01889)	MET
TFLKTAAPL [HTLV-1 nonamer peptide]	HLA class I molecule B*0702 (Homo sapiens, UniProt P01889)	NOT MET
